The measurements presented in this section are drawn from patent US20100234238A1.

system: 27 cell lines, representing diverse cancer cell types; assay: Inhibition of proliferation of cell lines in vitro (response status); type: cell-based; details: Homo sapiens, NCI-H23, H23 cell line; response to MTKI
pIC50: −log10 of the molar value.
Result Type: pIC50

Form entry - test system: 27 cell lines, representing diverse cancer cell types; read-out: pIC50; compound: COc1cc2ncnc3c2cc1OCCCCCN(C)Cc1ccc(Br)cc1N3
< 5.00

====

test system: 27 cell lines, representing diverse cancer cell types; experiment: Inhibition of proliferation of cell lines in vitro (response status); type: cell-based; settings: Homo sapiens, NCI-H2122, H2122 cell line; response to MTKI
pIC50: −log10 of the molar value.
Result Type: pIC50

What does the data say about its pIC50? Entry: COc1cc2ncnc3c2cc1OCCCCCN(C)Cc1ccc(Br)cc1N3
> 5.52

====

system: 27 cell lines, representing diverse cancer cell types; assay: Inhibition of proliferation of cell lines in vitro (response status); type: cell-based; conditions: Homo sapiens, NCI-H3255, H3255 cell line; response to MTKI
pIC50: −log10 of the molar value.
Result Type: pIC50

Give its pIC50 value. Item: COc1cc2ncnc3c2cc1OCCCCCN(C)Cc1ccc(Br)cc1N3
> 5.52

====

test system: 27 cell lines, representing diverse cancer cell types; experiment: Inhibition of proliferation of cell lines in vitro (response status); format: cell-based; details: Homo sapiens, NCI-H1650, H1650 cell line; response to MTKI
Result Type: IC50

May I ask what IC50 has been recorded for COc1cc2ncnc3c2cc1OCCCCCN(C)Cc1ccc(Br)cc1N3 ?
> 10 µM

====

system: 27 cell lines, representing diverse cancer cell types; experiment: Inhibition of proliferation of cell lines in vitro (response status); format: cell-based; conditions: Homo sapiens, NCI-H2009, H2009 cell line; response to MTKI
pIC50: −log10 of the molar value.
Result Type: pIC50

State its pIC50 on 27 cell lines, representing diverse cancer cell types: COc1cc2ncnc3c2cc1OCCCCCN(C)Cc1ccc(Br)cc1N3
> 5.52

====

system: 27 cell lines, representing diverse cancer cell types; experiment: Inhibition of proliferation of cell lines in vitro (response status); format: cell-based; conditions: HEK239, HEK239 cell line; response to MTKI
Result Type: IC50

State the recorded IC50 for this entry: COc1cc2ncnc3c2cc1OCCCCCN(C)Cc1ccc(Br)cc1N3
> 10 µM

====

tested on: 27 cell lines, representing diverse cancer cell types; assay: Inhibition of proliferation of cell lines in vitro (response status); format: cell-based; settings: Homo sapiens, SK-BR-3, SKBR3 cell line; response to MTKI
Result Type: IC50

Recorded IC50 for COc1cc2ncnc3c2cc1OCCCCCN(C)Cc1ccc(Br)cc1N3 , please?
< 3 µM

====

tested on: 27 cell lines, representing diverse cancer cell types; test: Inhibition of proliferation of cell lines in vitro (response status); assay type: cell-based; details: Homo sapiens, SH-SY5Y, SHSY5Y cell line; response to MTKI
Result Type: IC50

Recorded IC50 of COc1cc2ncnc3c2cc1OCCCCCN(C)Cc1ccc(Br)cc1N3 , please.
> 10 µM
